measured_target: T1, Human IL2Rγ extracellular domain expressed with a C-terminal mouse IgG2a Fc tag (human)
T1 construct: whole entry is the Fc-fused construct; also called hIL-2Rg-mFc
T1 chain: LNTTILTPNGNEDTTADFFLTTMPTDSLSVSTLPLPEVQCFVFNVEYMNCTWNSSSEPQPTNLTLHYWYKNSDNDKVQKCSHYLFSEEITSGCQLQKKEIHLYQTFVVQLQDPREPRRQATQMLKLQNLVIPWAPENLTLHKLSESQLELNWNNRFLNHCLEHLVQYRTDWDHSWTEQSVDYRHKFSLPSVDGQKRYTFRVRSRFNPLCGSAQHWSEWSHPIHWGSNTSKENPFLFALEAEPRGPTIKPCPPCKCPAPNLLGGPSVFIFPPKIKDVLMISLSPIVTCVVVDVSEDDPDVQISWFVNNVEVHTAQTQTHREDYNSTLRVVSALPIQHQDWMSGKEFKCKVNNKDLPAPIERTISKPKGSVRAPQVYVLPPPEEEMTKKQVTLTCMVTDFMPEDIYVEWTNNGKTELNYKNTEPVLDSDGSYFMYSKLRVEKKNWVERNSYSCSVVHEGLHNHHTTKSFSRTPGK
method_summary: SPR Biacore 4000, anti-hFc-captured mAb, 25 C
Entries and their koff
Your answer should be a plain number; it is taken to be in s⁻¹.

H4H13538P (antibody, human IgG4 S228P, kappa, V domains shown, fully human anti-IL2Rgamma mAb, human IgG4 Fc) VH: EVQLVESGGGLVQPGGSLGLSCAASGFTFSNYAMSWVRQAPGKGLEWVSAVSGGGGGTYYADSVKGRFTISRDNSKNTVLLQMNSLRAEDTAVYYCARGRTGGLDYWGPGTLVTVSS VL: DVVMTQSPLSLPVIFGQPASISCRSSQSLVDSDGNTYLNWLQQRPGQSPRRLIYEVSNRDSGVPDRFSGSGSGTDFTLTISRVEAEDVGIYYCMQGTRWPPTFGGGTKVEIKR    0.000116
H4H12863P (antibody, human IgG4 S228P, kappa, V domains shown, fully human anti-IL2Rgamma mAb, human IgG4 Fc) VH: QVQLVESGGGVVQPGRSLRLSCTASGFTFRSYDMYWVRQAPGKGLEWVSVITYDGNNKYYADSVKGRFTISRDNSKNTLFLQMSSLRPEDTAVYYCAKRGLIWVGESFDYWGQGTLVTVSS VL: DIQMTQSPSTLSASVGDRVTITCRASQSINSWLAWYQQKPGKAPNLLIYKASSLESGVPSRFSGSGSGTEFTLTISSLQPDDFATYYCQQYKSYSWTFGQGTKVEIKR    3.41e-05
H4H12889P (antibody, human IgG4 S228P, kappa, V domains shown, fully human anti-IL2Rgamma mAb, human IgG4 Fc; also called REGN7257) VH: EVQLVESGGGLVQPGGSLRLSCAASGFIFSSYEMHWVRQAPGKGLEWISYISSSGTTIYYADSVKGRFTISRDNAKNSLYLHMNSLRAEDTAVYYCTRARITGTFDVFDIWGQGTMVTVSS VL: DIQMTQSPSSLSASVGDRVTITCRASQSISSYLNWYQQKPGKAPKLLIFAASNLQSGVPSRFSGSRSGTDFTLTISSLQPEDFATYYCQQNYNIPYTFGQGTKLEIKR    1.55e-05
H4H12874P (antibody, human IgG4 S228P, kappa, V domains shown, fully human anti-IL2Rgamma mAb, human IgG4 Fc) VH: QVQLVESGGGVVQPGRSLRLSCAASGFNFRNFGMHWVRQAPGKGLEWVAGILYDGSSKYYADSVKDRFTISRDNSKNTLFLQMNSLRAEDTAMYYCAKEEDTAMVPFDSWGPGTLVTVSS VL: DIQLTQSPSFLSASVGDRVTITCWASQGISSYLAWYQQKPGKAPTLLIYAASTLQSGVPSRFSGSGSGTEFTLTISSLQPEDFASYYCQQLKSYPLTFGGGTKVEIKR    8.35e-05
H4H12884P (antibody, human IgG4 S228P, kappa, V domains shown, fully human anti-IL2Rgamma mAb, human IgG4 Fc) VH: QVQLQESGPGLVKPSQTLSLTCTVSGGSISSGGYYWSWIRQHPGKGLEWIGFIYYSGKTYYNPSLKSRLTISVDTSKSQFSLKLRSVTAADTAVYYCARLGYTNSAGWFDPWGQGTLVTVSS VL: DIQMTQSPSSLSASVGDRVTITCRASQSISSYLNWYQQKPGKAPNLLIYAASSLQSGVPSRFSGSGSGTDFTLTISSLQPEDLATYYCQQSYTTPFTFGPGTKVDIKR    4.02e-05
H4H12858P (antibody, human IgG4 S228P, kappa, V domains shown, fully human anti-IL2Rgamma mAb, human IgG4 Fc; also called REGN9433) VH: EVQLVESGGDLVQPGGSLRLSCTASGFIFRNYAMNWVRQAPGKGLEWLSGILGSNDNTYYVDSVKGRFTISRDNSRNTLYLQMNSLRAEDSAVYYCAKGDAGGFDYWGQGTLVTVSS VL: DVVMTQSPLSLPVILGQPASISCRSSQSLVSSDGNTYLNWFQQRPGQSPRRLIYKVSNRDSGVPDRFSGSGSGTDFTLKISRVEAEDVGAYYCMQGSYWPPTFGQGTKLEIKR    9.94e-05

Need koff of H4H12886P (antibody, human IgG4 S228P, kappa, V domains shown, fully human anti-IL2Rgamma mAb, human IgG4 Fc) VH: EVQLVESGGGLVKPGGSLRLSCAASGFTFSTAWMSWVRQSPGRGLEWVGRMKSKTDGGTTFYAAPVKGRFTISRDDSKNTLYLQMNSLKTEDTAVYYCTTGLVPAFYKYYGVDVWGQGTTVTVSS VL: DIQMTQSPSSLSASVGDRITITCQASQDITNYLNWYQQKPGKAPNLLIYDASNLVTGVPSRFSGSGSGTDFTFTILSLQPEDIATYYCQQYDSLLTFGPGTKVDIKR , thanks. 6.7e-05

Reference source: patent US20200247894A1
